- Target or test system: intracellular domain of human Tie2 (GST fusion protein) (Homo sapiens, UniProt Q02763)
- Construct: intracellular domain of human Tie2 (amino acids 776-1124); made in house; host or cells: Baculovirus-infected insect cells (Hi5)
- Sequence (Q02763 776-1124): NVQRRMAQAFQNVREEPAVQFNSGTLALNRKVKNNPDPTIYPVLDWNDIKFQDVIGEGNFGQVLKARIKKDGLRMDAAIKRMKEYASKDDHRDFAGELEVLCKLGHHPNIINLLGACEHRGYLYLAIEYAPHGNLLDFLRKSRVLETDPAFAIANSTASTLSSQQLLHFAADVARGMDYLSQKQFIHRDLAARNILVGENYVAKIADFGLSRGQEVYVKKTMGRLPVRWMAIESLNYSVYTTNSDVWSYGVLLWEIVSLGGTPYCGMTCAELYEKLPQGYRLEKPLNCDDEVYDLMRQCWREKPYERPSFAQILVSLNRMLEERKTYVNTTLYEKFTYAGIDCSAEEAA
- Protocol details: Tie2 kinase assay (Tie2-TR-FRET)
- Format: biochemical
- Condition info: ATP concentration 1 mM, in some cases means of several independent determinations
pIC50: −log10 of the molar value.
Parameter: pIC50. Scope: all listed entries.

Compound: Cc1ccc(NC(=O)c2cc(-n3ccnc3C)cc(C(C)(C)C)c2)cc1-n1ccn2nc(-c3cccnc3)cc12 [Example 47]
pIC50: 9.52
--
Compound: Cc1ccc(NC(=O)c2cc(Cl)cc(S(F)(F)(F)(F)F)c2)cc1-n1ccn2nc(-c3cncs3)cc12 [Example 174]
pIC50: 8.55
--
Compound: Cc1cc(C)c(-n2ccn3nc(-c4cccnc4)cc23)cc1NC(=O)c1cccc(N2CCC(F)(F)CC2)c1 [Example 138]
pIC50: 7.19
--
Compound: Cc1ccc(NC(=O)c2cc(N3CCOCC3)cc(S(F)(F)(F)(F)F)c2)cc1-n1ccn2nc(-c3cn[nH]c3)cc12 [Example 3]
pIC50: 8.92
--
Compound: Cc1cc(C)c(-n2ccn3nc(-c4cccnc4)cc23)cc1NC(=O)c1cc(N2CCC(C#N)CC2)cc(S(F)(F)(F)(F)F)c1 [Example 144]
pIC50: 9.22
--
Compound: Cc1cc(F)c(NC(=O)c2cc(C#N)cc(C(C)(C)C)c2)cc1-n1ccn2nc(-c3cccnc3)cc12 [Example 118]
pIC50: 9.40
--
Compound: Cc1c(F)cc(NC(=O)c2cccc(S(F)(F)(F)(F)F)c2)cc1-n1ccn2nc(-c3cccnc3)cc12 [Example 103]
pIC50: 6.89
--
Compound: Cc1ccc(NC(=O)c2cc(C#N)cc(S(F)(F)(F)(F)F)c2)cc1-n1ccn2nc(-c3cccnc3)cc12 [Example 28]
pIC50: 8.68
--
Compound: Cc1cc(C)c(-n2ccn3nc(-c4cccnc4)cc23)cc1NC(=O)c1cc(F)cc(S(F)(F)(F)(F)F)c1 [Example 107]
pIC50: 9.22
--
Compound: Cc1ccc(NC(=O)c2cc(CN3CCN(C)CC3)cc(S(F)(F)(F)(F)F)c2)cc1-n1ccn2nc(-c3cccnc3)cc12 [Example 36]
pIC50: 9.52
--
Compound: Cc1ccc(NC(=O)c2cc(Br)cc(S(F)(F)(F)(F)F)c2)c(C)c1-n1ccn2nc(-c3cccnc3)cc12 [Example 120]
pIC50: 7.43
--
Compound: Cc1ccc(NC(=O)c2cc(N3CCNCC3)cc(S(F)(F)(F)(F)F)c2)cc1-n1ccn2nc(-c3cccnc3)cc12 [Example 17]
pIC50: 9.52
--
Compound: Cc1cc(C)c(-n2ccn3nc(-c4cncnc4)cc23)cc1NC(=O)c1cccc(S(F)(F)(F)(F)F)c1 [Example 164]
pIC50: 9.40
--
Compound: Cc1ccc(NC(=O)c2ccc(F)c(C(F)(F)F)c2)cc1-n1ccn2nc(-c3cccnc3)cc12 [Example 45]
pIC50: 6.13
--
Compound: Cc1ccc(NC(=O)c2cc(Br)cc(S(F)(F)(F)(F)F)c2)cc1-n1ccn2nc(-c3cncs3)cc12 [Example 175]
pIC50: 8.49
--
Compound: Cc1ccc(NC(=O)c2cccc(N3CCCC3)c2)cc1-n1ccn2nc(-c3cccnc3)cc12 [Example 56]
pIC50: 7.28
--
Compound: Cc1ccc(NC(=O)c2cc(CO)cc(S(F)(F)(F)(F)F)c2)cc1-n1ccn2nc(-c3cccnc3)cc12 [Example 31]
pIC50: 8.96
--
Compound: Cc1cc(C)c(-n2ccn3nc(-c4cccnc4)cc23)cc1NC(=O)c1cccc(C(C)(C)C(F)(F)F)c1 [Example 139]
pIC50: 9.30
--
Compound: Cc1cc(C)c(-n2ccn3nc(-c4cccnc4)cc23)cc1NC(=O)c1cc(Cl)nc(C(C)(C)C)c1 [Example 115]
pIC50: 9.10
--
Compound: Cc1ccc(NC(=O)c2cc(OC3CNC3)cc(S(F)(F)(F)(F)F)c2)cc1-n1ccn2nc(-c3cccnc3)cc12 [Example 24]
pIC50: 9.10
--
Compound: Cc1ccc(NC(=O)c2cc(F)cc(S(F)(F)(F)(F)F)c2)cc1-n1ccn2nc(-c3cccnc3)cc12 [Example 88]
pIC50: 7.64
--
Compound: Cc1cc(C)c(-n2ccn3nc(-c4cccnc4)cc23)cc1NC(=O)c1cccc(OCC(F)(F)F)c1 [Example 130]
pIC50: 7.62
--
Compound: Cc1ccc(NC(=O)c2cc(C#N)cc(S(F)(F)(F)(F)F)c2)cc1-n1ccn2nc(-c3cncs3)cc12 [Example 177]
pIC50: 8.74
--
Compound: Cc1ccc(NC(=O)c2cc(C#N)cc(S(F)(F)(F)(F)F)c2)cc1-n1ccn2nc(-c3cccnc3)c(F)c12 [Example 159]
pIC50: 8.00
